Below: a set of entries, each annotated with reported drug sensitivity score.
- Test system: ST8814
- ASSAY REMARKS: drug sensitivity score (DSS, CellTox-Green cytotoxicity, 72 h) (DSS (dimensionless)); higher = more cytotoxic; extreme values may be limits of the assay
Number only, no unit.

1. C#Cc1cccc(Nc2ncnc3cc(OC)c(OCCCCCCC(=O)NO)cc23)c1 [CUDC-101] (max concentration tested 10000 nM); 9.2
2. CCS(=O)(=O)c1cccc(-c2cc(C(=O)NC3CCN(C)CC3)c(C)c3[nH]c4ncc(C)cc4c23)c1 [TAK-901] (max concentration tested 1000 nM); 5.81
3. CCn1c(C(=O)N(C2CC2)C2CC2)cc2c3c(ncn3C)c(Nc3cc(C)n(C)n3)nc21 (max concentration tested 10000 nM); 0
4. CCOc1cc2ncc(C#N)c(Nc3ccc(OCc4ccccn4)c(Cl)c3)c2cc1NC(=O)/C=C/CN(C)C [Neratinib] (max concentration tested 1000 nM); 0
5. COC1=C2C[C@@H](C)C[C@H](OC)[C@H](O)[C@@H](C)/C=C(\C)[C@H](OC(N)=O)[C@@H](OC)/C=C\C=C(/C)C(=O)NC(=CC1=O)C2=O [Geldanamycin] (max concentration tested 10000 nM); 2.65

In: ST8814 / drug sensitivity score / OC[C@H]1O[C@@H](n2cnc3c2N=CNC[C@H]3O)C[C@@H]1O [Pentostatin] (max concentration tested 10000 nM) : value?
Out: 0

In: Requested read-out drug sensitivity score, target or system ST8814, entry Nc1ccn([C@@H]2O[C@H](CO)[C@@H](O)C2(F)F)c(=O)n1 [Gemcitabine] (max concentration tested 1000 nM)
Out: 21

In: Under ST8814: drug sensitivity score value of CCC/C=C/C=C/C(=O)O[C@H]1/C(=C/C(=O)OC)C[C@H]2C[C@H]([C@@H](C)O)OC(=O)C[C@H](O)C[C@@H]3C[C@H](OC(C)=O)C(C)(C)[C@](O)(C[C@@H]4C/C(=C/C(=O)OC)C[C@H](/C=C/C(C)(C)[C@]1(O)O2)O4)O3 [Bryostatin 1] (max concentration tested 100 nM) ?
Out: 0

In: Recall the recorded drug sensitivity score for CC/C(=C(\c1ccccc1)c1ccc(OCCN(C)C)cc1)c1ccccc1 [Tamoxifen] (max concentration tested 10000 nM) with ST8814 and state it.
Out: 6.84

In: Lookup: drug sensitivity score / ST8814 / Nc1ccccc1NC(=O)c1ccc(CNC(=O)OCc2cccnc2)cc1 [Entinostat] (max concentration tested 10000 nM)
Out: 2.69

In: Give the reported drug sensitivity score for N[C@@H](CSC(c1ccccc1)(c1ccccc1)c1ccccc1)C(=O)O [S-trityl-L-cysteine] (max concentration tested 40000 nM) (system: ST8814).
Out: 0

* * *

Each record here notes measured % inhibition.
- System: YST-1
- ASSAY REMARKS: % inhibition of CellTiter-Glo viability at highest tested concentration (72 h), relative to DMSO and benzethonium chloride controls; higher = more inhibition
The response must be a number in % with no trailing unit.

Worked cases, % inhibition given:
1. CO[C@@]12[C@H](COC(N)=O)C3=C(C(=O)C(C)=C(N)C3=O)N1C[C@@H]1N[C@@H]12 [Mitomycin C] (max concentration tested 10000 nM); 55.7
2. CC[C@H](Nc1ncnc2[nH]cnc12)c1nc2cccc(F)c2c(=O)n1-c1ccccc1 [Idelalisib] (max concentration tested 10000 nM); 46.5
3. O=C(CCCCCCNC(=O)c1cnc(N(c2ccccc2)c2ccccc2)nc1)NO [Rocilinostat] (max concentration tested 10000 nM); 89.5
4. CN(C)C(=O)c1ccc(S(=O)(=O)c2ccc(NC(=O)[C@@](C)(O)C(F)(F)F)c(Cl)c2)cc1 [AZD7545] (max concentration tested 10000 nM); 2.29
5. CN1CCN(C2CCN(C(=O)Nc3cc(Oc4ccc(NC(=O)C5(C(=O)Nc6ccc(F)cc6)CC5)c(F)c4)ccn3)CC2)CC1 [Golvatinib] (max concentration tested 2500 nM); 17.2

In: Short answer please: % inhibition, YST-1, entry O=C(c1ccc(OCCN2CCCCC2)cc1)c1c(-c2ccc(O)cc2)sc2cc(O)ccc12 [Raloxifene] (max concentration tested 10000 nM)
Out: 25.5

* * *

- System: ST8814
- ASSAY REMARKS: relative IC50 (inflection point of fitted dose-response curve, CellTiter-Glo viability, 72 h; top asymptote may be below 50% inhibition); higher = less potent
Below, each entry is listed alongside its reported relative IC50.
// note: answer is a bare numeric in µM

1) CCCCCCCCc1ccc(CCC(N)(CO)CO)cc1; 2.77

In: I'd like to know its relative IC50. The compound in question is `NC(=O)Nc1cc(-c2cccc(F)c2)sc1C(=O)N[C@H]1CCCNC1`
Out: 0.149

* * *

- Tested on: HS-PSS
- ASSAY REMARKS: drug sensitivity score (DSS, CellTiter-Glo viability, 72 h) (DSS (dimensionless)); higher = more sensitive; extreme values may be limits of the assay
Would you mind labelling by drug sensitivity score? At or over 4 is yes (1), under is no (0).

1. CC(=O)c1cnc2ccc(-c3cc(Cl)c(O)c(Cl)c3)nc2c1N[C@H]1CC[C@H](CN(C)C)CC1 [OTSSP167] (max concentration tested 1000 nM); yes (1)
2. Nc1cc(F)ccc1NC(=O)/C=C/c1cnn(C/C=C/c2ccccc2)c1 [RGFP966] (max concentration tested 10000 nM); yes (1)
3. O=C(CCCCCCC(=O)Nc1ccc([C@H]2O[C@@H](CSc3nc(-c4ccccc4)c(-c4ccccc4)o3)C[C@@H](c3ccc(CO)cc3)O2)cc1)NO [Tubacin] (max concentration tested 10000 nM); yes (1)
4. CC(O)(CS(=O)(=O)c1ccc(F)cc1)C(=O)Nc1ccc(C#N)c(C(F)(F)F)c1 (stereo unspecified) [Bicalutamide] (max concentration tested 10000 nM); no (0)
5. CNC(=O)c1cc(COc2nnc(Nc3ccc(Cl)cc3)c3ccoc23)ccn1 [Telatinib] (max concentration tested 10000 nM); no (0)

Turning now to a further record.
In: Would you say C#Cc1cccc(Nc2ncnc3cc(OCCOC)c(OCCOC)cc23)c1 [Erlotinib] (max concentration tested 10000 nM) shows drug sensitivity score at minimum 4?
Out: no (0)

* * *

# reported % inhibition; entries follow
- System: S462
- ASSAY REMARKS: % inhibition of CellTiter-Glo viability at highest tested concentration (72 h), relative to DMSO and benzethonium chloride controls; higher = more inhibition
Answer format: numeric, % implied, no suffix.

1. Nc1ncn([C@H]2C[C@H](O)[C@@H](CO)O2)c(=O)n1 [Decitabine] (max concentration tested 10000 nM); 37.4
2. O=C1NC(=O)[C@@H](c2cn3c4c(cccc24)CCC3)[C@@H]1c1c[nH]c2ccccc12 [Tivantinib] (max concentration tested 1000 nM); 98.4
3. CC1(C)CCC(CN2CCN(c3ccc(C(=O)NS(=O)(=O)c4ccc(NCC5CCOCC5)c([N+](=O)[O-])c4)c(Oc4cnc5[nH]ccc5c4)c3)CC2)=C(c2ccc(Cl)cc2)C1 [ABT-199] (max concentration tested 10000 nM); 7.02
4. Cn1c(=O)n(-c2ccc(C(C)(C)C#N)cc2)c2c3cc(-c4cnc5ccccc5c4)ccc3ncc21 [Dactolisib] (max concentration tested 1000 nM); 61
5. NC1(c2ccc(-c3nc4ccn5c(=O)[nH]nc5c4cc3-c3ccccc3)cc2)CCC1 [MK-2206] (max concentration tested 1000 nM); 10.5
6. Cc1nc(C(=O)NCC(=O)O)c(O)c2ccc(Oc3ccccc3)cc12 [FG-4592] (max concentration tested 10000 nM); -7

In: Please report the recorded % inhibition for FC(F)c1nc2ccccc2n1-c1nc(N2CCOCC2)nc(N2CCOCC2)n1 [ZSTK474] (max concentration tested 10000 nM) .
Out: 59.4

In: What value of % inhibition has been recorded for this entry: C=CCn1c(=O)c2cnc(Nc3ccc(N4CCN(C)CC4)cc3)nc2n1-c1cccc(C(C)(C)O)n1 [MK1775] (max concentration tested 10000 nM)
Out: 107

In: I have this compound here, CC[C@@]1(O)C(=O)OCc2c1cc1n(c2=O)Cc2cc3ccccc3nc2-1 [Camptotechin] (max concentration tested 5000 nM) , and I need its recorded % inhibition.
Out: 104

In: So what's the measured % inhibition for this one? CO[C@H](C(=O)[C@@H](O)[C@@H](C)O)[C@@H]1Cc2cc3cc(O[C@H]4C[C@@H](O[C@H]5C[C@@H](O)[C@H](O)[C@@H](C)O5)[C@@H](O)[C@@H](C)O4)c(C)c(O)c3c(O)c2C(=O)[C@H]1O[C@H]1C[C@@H](O[C@H]2C[C@@H](O[C@H]3C[C@](C)(O)[C@H](O)[C@@H](C)O3)[C@H](O)[C@@H](C)O2)[C@H](O)[C@@H](C)O1 [Plicamycin] (max concentration tested 10000 nM)
Out: 97.3
